Origin of measurements: patent US8466176B2

Reported values of log p for individual entries
Experiment: logP by HPLC on reversed phase columns, method [a], pH 2.3 with 0.1% phosphoric acid and acetonitrile
Type: physicochemical
Details: method [a]: pH 2.3, 0.1% phosphoric acid and acetonitrile as eluent; EEC directive 79/831 Annex V.A8, reversed phase HPLC

{"columns": ["entry smiles", "log p"],
 "data": [
  ["CCCCC#Cc1nc(CON=C(c2ccccc2)c2nnnn2C)cs1", "4.36^[a]"],
  ["Cn1nnnc1C(=NOCc1csc(C#CC2CCCC2)n1)c1ccccc1", "4.49^[a]"],
  ["CN(CCc1ccccc1)c1nc(CON=C(c2ccccc2)c2nnnn2C)cs1", "3.96^[a]"],
  ["Cn1nnnc1C(=NOCc1csc(N2CCCCC2)n1)c1ccccc1", "3.39^[a]"],
  ["CCCCCC/C=C/c1nc(CON=C(c2ccccc2)c2nnnn2C)cs1", "5.53^[a]"]
]}

Here is another molecule to look at.
IN: Quick check: log p of Cn1nnnc1C(=NOCc1cccc(C(F)(F)C(F)(F)C(F)(F)C(F)(F)C(F)(F)C(F)(F)C(F)(F)F)n1)c1ccccc1 ?
OUT: 5.86^[a]

###

Experiment: logP(HCOOH) reported with HPLC/MS
Details: method [b]: LC-MS at pH 2.7, 0.1% formic acid in water and acetonitrile, linear gradient 10% to 95% acetonitrile
quantity kind: log p

# count of solved cases: 4
{"columns": ["entry smiles", "observed value"],
 "data": [
  ["Cn1nnnc1C(=NOCc1cccc(C#CCC2CCC2)n1)c1ccccc1", "4.39^[b]"],
  ["Cn1nnnc1C(=NOCc1cccc(C#CCc2cccc(F)c2)n1)c1ccccc1", "4.16^[b]"],
  ["Cn1nnnc1C(=NOCc1nc(C#CCCCCl)sc1Cl)c1ccccc1", "4.51^[b]"],
  ["Cn1nnnc1C(=NOCc1cccc(C#CCn2ccc(C(F)(F)F)n2)n1)c1ccccc1", "3.62^[b]"]
]}

IN: Need log p of COc1ccc(CON=C(c2ccccc2)c2nnnn2C)nc1C#CCC1CCCC1 , thanks.
OUT: 4.46^[b]

IN: Which log p is listed for COc1ccc(CON=C(c2ccccc2)c2nnnn2C)nc1C#CCCCc1ccccc1 ?
OUT: 4.44^[b]

IN: # input molecule: Cc1nnnn1C(=NOCc1cccc(NC(=S)NCc2ccccc2)n1)c1ccccc1 ; wanted: its log p
OUT: 3.52^[b]

IN: I would be grateful if you could share the reported log p for COc1ccc(CON=C(c2ccccc2)c2nnnn2C)nc1C#CCC1CCCCC1 .
OUT: 4.84^[b]

###

Experiment: logP(HCOOH) reported with HPLC/MS
Settings: method [b]: LC-MS at pH 2.7, 0.1% formic acid in water and acetonitrile, linear gradient 10% to 95% acetonitrile
quantity kind: log p

{"columns": ["compound", "log p"],
 "data": [
  ["CCCCCOC(=O)NCc1cccc(CON=C(c2ccccc2)c2nnnn2C)n1 [Example 60]", "3.48^[b]"],
  ["Cc1nnnn1C(=NOCc1cccc(NC(=S)NC2CCCCC2)n1)c1ccccc1 [Example 8]", "3.81^[b]"],
  ["CCCCCNC(=S)Nc1cccc(CON=C(c2ccccc2)n2nnnc2C)n1 [Example 13]", "3.82^[b]"]
]}

Now look at this entry.
IN: Could you tell me which log p is on file for Cn1nnnc1C(=NOCc1nc(C#CCCCC#N)ccc1F)c1ccccc1 [Example 103] ?
OUT: 3.11^[b]
